These data points were gathered from patent US20200223889A1.

tested-system: human MC4R (Homo sapiens, UniProt P32245)
Construct: expressed in transfected cells
Sequence (P32245 whole entry): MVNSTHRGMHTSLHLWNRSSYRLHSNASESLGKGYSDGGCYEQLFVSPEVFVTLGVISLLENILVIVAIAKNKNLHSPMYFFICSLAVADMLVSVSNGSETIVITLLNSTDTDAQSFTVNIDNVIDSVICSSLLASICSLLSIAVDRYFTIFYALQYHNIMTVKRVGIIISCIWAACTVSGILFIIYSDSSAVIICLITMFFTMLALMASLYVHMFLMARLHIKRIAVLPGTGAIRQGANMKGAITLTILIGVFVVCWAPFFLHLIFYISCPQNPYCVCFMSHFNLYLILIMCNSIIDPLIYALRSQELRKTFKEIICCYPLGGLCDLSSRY
protocol-description: 125NDP-α-MSH competitive binding to membranes of BHK cells expressing human MC4 receptor (filtration assay)
experimental-parameters: human MC4R, BHK cell membranes, 125NDP-α-MSH radioligand; read-out: MC4R binding Ki
Starred links: 1 amine or outer side, 2 acyl side, 3 side chain; linkers in the order of their positions; H or OH if unused. Positions of bridges follow the written chain, without caps; N, C: chain ends. Non-standard residues stand in square brackets, D forms with d. Residues, ends and D or L forms follow the SMILES beside them. Pen = CC(C)(S)[C@H](N)C(=O)O; d(hCys) = N[C@H](CCS)C(=O)O; X1 = C(CN[*:2])CS[*:1]; Aib = CC(C)(N)C(=O)O
Each entry below lists one item and its recorded Ki value.
Report the figure in nM without appending any unit label.

compound: NCCCC[C@@H]1NC(=O)[C@H](CCCCN)NC(=O)[C@@H]2CSSC[C@H](NC(=O)[C@H](Cc3c[nH]c4ccccc34)NC(=O)[C@H](CCCCN)NC(=O)[C@H](CCCCN)NC1=O)C(=O)N1CCC[C@H]1C(=O)N[C@@H](Cc1c[nH]cn1)C(=O)N[C@H](Cc1ccccc1)C(=O)N[C@@H](Cc1c[nH]cn1)C(=O)N[C@@H](Cc1c[nH]c3ccccc13)C(=O)N2 [Chem. 75] (cyclo(CKKKKWCPH[dF]HW); disulfide 1-7)
tested-system: human MC4R (Homo sapiens, UniProt P32245)
Ki / nM: 0.11
//
compound: CC(=O)N[C@@H](Cc1c[nH]cn1)C(=O)N[C@H](Cc1ccccc1)C(=O)N[C@@H](CCCNC(=N)N)C(=O)N[C@@H](Cc1c[nH]c2ccccc12)C(=O)N[C@H](C)C(=O)N[C@@H]1CCSSCCCNC(=O)[C@@H](C)NC(=O)[C@H](Cc2c[nH]c3ccccc23)NC(=O)[C@H](CCCNC(=N)N)NC(=O)[C@@H](Cc2ccccc2)NC(=O)[C@H](Cc2c[nH]cn2)NC1=O [Chem. 6] (Ac-H[dF]RW[dA][d(hCys)]H[dF]RW[dA]; linker 6-C via X1)
tested-system: human MC4R (Homo sapiens, UniProt P32245)
Ki / nM: 0.19
//
compound: C[C@@H]1NC(=O)[C@@H]2CSCSC[C@H](NC(=O)[C@H](Cc3c[nH]c4ccccc34)NC(=O)[C@H](CCCNC(=N)N)NC(=O)[C@@H](Cc3ccccc3)NC(=O)[C@H](Cc3c[nH]cn3)NC1=O)C(=O)N[C@@H](C)C(=O)N[C@@H](Cc1c[nH]cn1)C(=O)N[C@H](Cc1ccccc1)C(=O)N[C@@H](CCCNC(=N)N)C(=O)N[C@@H](Cc1c[nH]c3ccccc13)C(=O)N2
tested-system: human MC4R (Homo sapiens, UniProt P32245)
Ki / nM: 0.08
//
compound: C[C@@H]1NC(=O)[C@@H]2CSSC(C)(C)[C@H](NC(=O)[C@H](CCCNC(=N)N)NC(=O)[C@H](CCCCN)NC(=O)[C@H](CCCCN)NC(=O)[C@H](CCCCN)NC1=O)C(=O)N1CCC[C@H]1C(=O)N[C@@H](Cc1c[nH]cn1)C(=O)N[C@H](Cc1ccccc1)C(=O)N[C@@H](Cc1c[nH]cn1)C(=O)N[C@@H](Cc1c[nH]c3ccccc13)C(=O)N2 [Chem. 92] (cyclo(AKKKR[Pen]PH[dF]HWC); disulfide 6-12)
tested-system: human MC4R (Homo sapiens, UniProt P32245)
Ki / nM: 0.04
//
compound: C[C@@H]1NC(=O)[C@@H]2CSSC[C@H](NC(=O)[C@H](CCCNC(=N)N)NC(=O)[C@H](CCCCN)NC(=O)[C@H](CCCCN)NC(=O)[C@H](CCCCN)NC1=O)C(=O)N1CCC[C@H]1C(=O)N[C@@H](Cc1c[nH]cn1)C(=O)N[C@H](Cc1ccccc1)C(=O)N[C@@H](Cc1c[nH]cn1)C(=O)N[C@@H](Cc1c[nH]c3ccccc13)C(=O)N2 [Chem. 71] (cyclo(AKKKRCPH[dF]HWC); disulfide 6-12)
tested-system: human MC4R (Homo sapiens, UniProt P32245)
Ki / nM: 0.05

// Ki lookup, compound = C[C@@H]1NC(=O)[C@@H]2CSSC[C@H](NC(=O)[C@H](CCCNC(=N)N)NC(=O)[C@H](CCCCN)NC(=O)[C@H](CCCCN)NC(=O)[C@H](CCCCN)NC1=O)C(=O)N[C@@H](CCCCN)C(=O)N[C@@H](Cc1c[nH]cn1)C(=O)N[C@H](Cc1ccccc1)C(=O)N[C@@H](Cc1c[nH]cn1)C(=O)N[C@@H](Cc1c[nH]c3ccccc13)C(=O)N2 [Chem. 78] (cyclo(AKKKRCKH[dF]HWC); disulfide 6-12) , result: 0.02

Note to self: Ki recorded for CC1(C)NC(=O)[C@@H]2CSSC[C@H](NC(=O)[C@H](Cc3c[nH]c4ccccc34)NC(=O)[C@H](CCCCN)NC(=O)[C@@H](Cc3ccccc3)NC(=O)[C@H](Cc3c[nH]cn3)NC1=O)C(=O)NC(C)(C)C(=O)N[C@@H](Cc1c[nH]cn1)C(=O)N[C@H](Cc1ccccc1)C(=O)N[C@@H](CCCCN)C(=O)N[C@@H](Cc1c[nH]c3ccccc13)C(=O)N2 [Chem. 40] (cyclo([Aib]H[dF]KWC[Aib]H[dF]KWC); disulfide 6-12) was 0.31
